Below, each entry is listed with its recorded viability at 24 h, 1 µM.
- experiment_notes: MTT assay in H1299 cells
- Assay type: cell-based
- condition_summary: human, H1299 cells (H1299/PhTERT-driven SEAP reporter system); H1299; compound concentration 1 μM; read-out: MTT (Inhibition μM ± SD)

{"compound": "Nc1ccc2c(c1)C(=O)c1cc(N)ccc1C2=O [Compound 2, 2,7-Diaminoanthraquinone]", "viability at 24 h, 1 µM [%]": 90}
{"compound": "CCCCNCC(=O)Nc1ccc2c(c1)C(=O)c1cc(NC(=O)CNCCCC)ccc1C2=O [Compound 5]", "viability at 24 h, 1 µM [%]": 91}
{"compound": "O=C(CCCl)Nc1ccc2c(c1)C(=O)c1cc(NC(=O)CCCl)ccc1C2=O [Compound 15]", "viability at 24 h, 1 µM [%]": 77}
{"compound": "CC(C)NCC(=O)Nc1ccc2c(c1)C(=O)c1cc(NC(=O)CNC(C)C)ccc1C2=O [Compound 13]", "viability at 24 h, 1 µM [%]": 78}
{"compound": "CCNCC(=O)Nc1ccc2c(c1)C(=O)c1cc(NC(=O)CNCC)ccc1C2=O [Compound 10]", "viability at 24 h, 1 µM [%]": 52}
{"compound": "O=C(Nc1ccc2c(c1)C(=O)c1cc(NC(=O)c3ccccc3)ccc1C2=O)c1ccccc1 [Compound 29, 2,7-Bis(benzoamido)anthraquinone]", "viability at 24 h, 1 µM [%]": 71}
{"compound": "CN(C)CCC(=O)Nc1ccc2c(c1)C(=O)c1cc(NC(=O)CCN(C)C)ccc1C2=O [Compound 20]", "viability at 24 h, 1 µM [%]": 1}
{"compound": "CCCNCCC(=O)Nc1ccc2c(c1)C(=O)c1cc(NC(=O)CCNCCC)ccc1C2=O [Compound 21]", "viability at 24 h, 1 µM [%]": 80}
{"compound": "O=C(Cc1ccccc1)Nc1ccc2c(c1)C(=O)c1cc(NC(=O)Cc3ccccc3)ccc1C2=O [Compound 30, 2,7-Bis(phenylacetamido)anthraquinone]", "viability at 24 h, 1 µM [%]": 106}
{"compound": "O=C1c2ccc([N+](=O)[O-])cc2C(=O)c2cc([N+](=O)[O-])ccc21 [Compound 1, 2,7-dinitroanthraquinone]", "viability at 24 h, 1 µM [%]": 97}
{"compound": "CCN(CC)CCC(=O)Nc1ccc2c(c1)C(=O)c1cc(NC(=O)CCN(CC)CC)ccc1C2=O [Compound 16]", "viability at 24 h, 1 µM [%]": 106}
{"compound": "O=C(CN1CCCC1)Nc1ccc2c(c1)C(=O)c1cc(NC(=O)CN3CCCC3)ccc1C2=O [Compound 6]", "viability at 24 h, 1 µM [%]": 99}
{"compound": "O=C(CCN1CCNCC1)Nc1ccc2c(c1)C(=O)c1cc(NC(=O)CCN3CCNCC3)ccc1C2=O [Compound 24]", "viability at 24 h, 1 µM [%]": 97}
{"compound": "CCCCNCCC(=O)Nc1ccc2c(c1)C(=O)c1cc(NC(=O)CCNCCCC)ccc1C2=O [Compound 17]", "viability at 24 h, 1 µM [%]": 82}
{"compound": "O=C(CN1CCNCC1)Nc1ccc2c(c1)C(=O)c1cc(NC(=O)CN3CCNCC3)ccc1C2=O [Compound 12]", "viability at 24 h, 1 µM [%]": 88}
{"compound": "CCCNCC(=O)Nc1ccc2c(c1)C(=O)c1cc(NC(=O)CNCCC)ccc1C2=O [Compound 9]", "viability at 24 h, 1 µM [%]": 89}
